IC50: recorded values
Molecular target: topoisomerase Type I (Bos taurus, UniProt F1MN93)
Sequence (F1MN93 1-767): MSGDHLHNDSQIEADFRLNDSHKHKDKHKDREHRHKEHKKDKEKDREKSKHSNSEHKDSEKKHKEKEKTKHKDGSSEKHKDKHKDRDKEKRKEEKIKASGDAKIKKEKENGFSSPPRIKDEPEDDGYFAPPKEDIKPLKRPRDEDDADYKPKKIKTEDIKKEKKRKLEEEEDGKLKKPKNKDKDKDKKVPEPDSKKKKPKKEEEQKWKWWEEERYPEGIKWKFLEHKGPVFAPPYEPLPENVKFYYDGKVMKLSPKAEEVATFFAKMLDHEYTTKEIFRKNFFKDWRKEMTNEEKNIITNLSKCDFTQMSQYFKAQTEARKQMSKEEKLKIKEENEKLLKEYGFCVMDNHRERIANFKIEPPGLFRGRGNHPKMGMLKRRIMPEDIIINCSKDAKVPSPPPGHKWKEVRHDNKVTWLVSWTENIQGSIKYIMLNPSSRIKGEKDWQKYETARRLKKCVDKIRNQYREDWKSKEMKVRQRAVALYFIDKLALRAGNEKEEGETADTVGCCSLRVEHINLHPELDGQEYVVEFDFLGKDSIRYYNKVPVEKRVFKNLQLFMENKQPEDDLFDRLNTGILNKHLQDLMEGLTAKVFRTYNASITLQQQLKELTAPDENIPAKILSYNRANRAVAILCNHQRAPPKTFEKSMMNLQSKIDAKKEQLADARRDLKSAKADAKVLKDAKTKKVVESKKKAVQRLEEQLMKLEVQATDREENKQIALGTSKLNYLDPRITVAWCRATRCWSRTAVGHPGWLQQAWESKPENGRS
Test: biochemical

Some compounds with known IC50 results, for comparison:
CCC1(O)C(=O)OCc2c1cc1n(c2=O)Cc2c-1nc1cc3c(cc1c2C[n+]1ccccc1)OCCO3 (racemic) : > 1000 nM
CCCCOP(=O)(Cc1c2c(nc3cc4c(cc13)OCCO4)-c1cc3c(c(=O)n1C2)COC(=O)[C@]3(O)CC)OCCCC : > 2000 nM
CC[C@@]1(O)C(=O)OCc2c1cc1n(c2=O)Cc2c-1nc1cc3c(cc1c2CSc1ccc(NC(=O)CN(C)C)cc1)OCCO3 : > 500 nM

Turning now to a further compound:
Req: Field request: IC50 | item: "CC[C@@]1(O)C(=O)OCc2c1cc1n(c2=O)Cc2c-1nc1cc3c(cc1c2CSc1ccc(N)cc1)OCCO3"
Resp: > 500 nM
